test system: Leishmania panamensis; assay: Antileishmanial activity against Leishmania panamensis promastigotes after 48 hrs by MTT method; type: functional, organism-based
The reader will find reported IC50 values listed item by item below.
Express it in µg/mL; write the number only.

Below, each entry is followed by its recorded IC50 result.
Task: Given the entry CC1(O)CCCC2(C)Cc3c(O)ccc(O)c3CC12 (racemic) , what IC50 was observed with Leishmania panamensis?
Output: 1.8

Task: Given the entry C=C[C@@]1(C)CC2=C(C[C@H]1C(=C)C)C(=O)C=CC2=O , what IC50 was observed with Leishmania panamensis?
Output: 5.5

Continuing:
Task: Given the entry CC1=C2C(=O)c3c(O)ccc(O)c3CC2(C)CCC1=O (racemic) , what IC50 was observed with Leishmania panamensis?
Output: 13

Task: Given the entry C/C(C=O)=C\CC/C(C)=C/Cc1cc(O)ccc1O , what IC50 was observed with Leishmania panamensis?
Output: 1.8

====

tested on: Leishmania guyanensis; experiment: Antileishmanial activity against Leishmania guyanensis promastigotes after 48 hrs by MTT method; format: functional, organism-based
reported_property: IC50 (µg/mL)
Express it in µg/mL; write the number only.

Below, each entry is followed by its recorded IC50 result.
Task: Given the entry CC1(O)CCCC2(C)Cc3c(O)ccc(O)c3CC12 (racemic) , what IC50 was observed with Leishmania guyanensis?
Output: 3

Task: Given the entry C/C(C=O)=C\CC/C(C)=C/Cc1cc(O)ccc1O , what IC50 was observed with Leishmania guyanensis?
Output: 2

Task: Given the entry C=C[C@@]1(C)CC2=C(C[C@H]1C(=C)C)C(=O)C=CC2=O , what IC50 was observed with Leishmania guyanensis?
Output: 6

Field: next molecule
Task: Given the entry CC1=C2C(=O)c3c(O)ccc(O)c3CC2(C)CCC1=O (racemic) , what IC50 was observed with Leishmania guyanensis?
Output: 7

====

test system: Huh-7; test: Cytotoxicity against human HuH7 cells by XTT method; assay type: functional, cell-based
Could you please mark Criterion met for values of IC50 below 60 µg/mL and Criterion not met for values at or above it?

Check out these entries, answers already filled in.
Task: Dear reviewer, please state whether CC1(O)CCCC2(C)Cc3c(O)ccc(O)c3CC12 (racemic) has IC50 strictly beneath 60 µg/mL.
Output: Criterion met

Task: Dear reviewer, please state whether CC1=C2C(=O)c3c(O)ccc(O)c3CC2(C)CCC1=O (racemic) has IC50 strictly beneath 60 µg/mL.
Output: Criterion not met

Task: Dear reviewer, please state whether C/C(C=O)=C\CCC(C)(O)/C=C\c1cc(O)ccc1O (racemic) has IC50 strictly beneath 60 µg/mL.
Output: Criterion not met

Task: Dear reviewer, please state whether C=C1CCC[C@@]2(C)CC3=C(C[C@@H]12)C(=O)C=CC3=O has IC50 strictly beneath 60 µg/mL.
Output: Criterion not met

Task: Dear reviewer, please state whether C/C(C=O)=C\CC/C(C)=C/Cc1cc(O)ccc1O has IC50 strictly beneath 60 µg/mL.
Output: Criterion met

Continuing:
Task: Dear reviewer, please state whether CC1=C2C(=O)c3c(OC(=O)c4ccc(Br)cc4)ccc(OC(=O)c4ccc(Br)cc4)c3CC2(C)CCC1=O (racemic) has IC50 strictly beneath 60 µg/mL.
Output: Criterion not met

Task: Dear reviewer, please state whether CC(=O)Oc1ccc(OC(C)=O)c2c1CC1(C)CCC(=O)C(C)=C1C2=O (racemic) has IC50 strictly beneath 60 µg/mL.
Output: Criterion not met

====

test system: Huh-7; experiment: Cytotoxicity against human HuH7 cells by XTT method; assay type: functional, cell-based
reported_property: IC50 (µg/mL)
Express it in µg/mL; write the number only.

Task: Would you kindly share the measured IC50 for CC1=CCC[C@@]2(C)CC3=C(C[C@@H]12)C(=O)C=CC3=O [CORDIACHROME A] ?
Output: 61.1

Continuing:
Task: Would you kindly share the measured IC50 for C=C[C@@]1(C)Cc2c(OC(C)=O)ccc(OC(C)=O)c2C[C@H]1C(=C)C [ACETYLCORDIAQUINOL C] ?
Output: 60.9
